System: STING activation (IFNβ release) in iBMDMs
Assay: IFNβ release ELISA after STING ligand (or LPS) stimulation, iBMDMs
Type: cell-based, mouse
Conditions: iBMDMs; 3′3′-cGAMP 10 μg/ml, 16 hours; compound 10 μM
Description: Commercially available enzyme-linked immunosorbent assay (ELISA) kits were used to measure the concentrations of mouse IFNβ (Thermo Fisher Scientific) or human IFNβ (Thermo Fisher Scientific) in culture medium according to the manufacturer's instructions. […]
readout type: 3′3′-cGAMP-induced IFNβ release

Solved entries (count: 6):
| compound | reading |
| --- | --- |
| CN1CCCCC1Cn1cc(C(=O)c2cc([N+](=O)[O-])ccc2I)c2ccccc21 (centres unmarked) | promoted |
| CCN(CC)CC(=O)Nc1c(C)cccc1C | promoted |
| Cl.NC(=O)c1cnc(N[C@@H]2CCCC[C@@H]2N)nc1Nc1cccc(-n2nccn2)c1 [PRT062607 (P505-15, BIIB057) HCl] | blocked |
| O=C(/C=C\n1cnc(-c2cc(C(F)(F)F)cc(C(F)(F)F)c2)n1)NNc1cnccn1 | blocked |
| O=C(NCc1ccccc1)c1csc(Nc2ccncn2)n1 | promoted |
| C[C@@H]1CN(CC(=O)Nc2ccc3c(c2)Cc2cccc(-c4cc(=O)cc(N5CCOCC5)o4)c2S3)C[C@H](C)O1 | blocked |

Ask: Look up 3′3′-cGAMP-induced IFNβ release with STING activation (IFNβ release) in iBMDMs for this compound: Cc1cn([C@H]2C=C[C@@H](CO)O2)c(=O)[nH]c1=O
Reply: promoted

Ask: Observed 3′3′-cGAMP-induced IFNβ release on STING activation (IFNβ release) in iBMDMs for O=C1NC(=O)/C(=C/c2ccc(-c3ccc(F)cc3O)o2)S1 , please.
Reply: promoted

* * *

Recorded measurements of fold increase in IFN-β release, one per entry
Tested on: STING activation (IFNβ release) in iBMDMs
Assay: IFNβ release ELISA after STING ligand (or LPS) stimulation, iBMDMs
Format: cell-based, mouse
Details: iBMDMs; 3′3′-cGAMP 10 μg/ml, 16 hours; compound 10 μM
Give the value, in units of fold, as a plain number.

Examples from the recorded data:
| mol | endpoint unit | fold increase in IFN-β release |
| --- | --- | --- |
| CN(c1ncccc1CNc1nc(Nc2ccc3c(c2)CC(=O)N3)ncc1C(F)(F)F)S(C)(=O)=O | fold | 0.21 |
| Cc1cc(OCCCS(C)(=O)=O)cc(C)c1-c1cccc(COc2ccc3c(c2)OC[C@H]3CC(=O)O)c1 | fold | 1.17 |
| CCC(=O)Nc1cccc(Oc2nc(Nc3ccc(N4CCN(C)CC4)cc3OC)ncc2Cl)c1 | fold | 0.12 |
| CCOc1nc2cccc(C(=O)O)c2n1Cc1ccc(-c2ccccc2-c2nnn[nH]2)cc1 | fold | 2.31 |

Ask: // query fold increase in IFN-β release value for entry O=C(O)c1ccc(N2C(=O)/C(=C\c3ccc(-c4ccc([N+](=O)[O-])cc4)o3)C=C2c2ccccc2)cc1
Reply: 2.36

Ask: I would be grateful if you could share the reported fold increase in IFN-β release for CCc1cncnc1N1CCN(Cc2nc3ccc(C(F)(F)F)cc3[nH]2)CC1 .
Reply: 2.12

Ask: Which measured fold increase in IFN-β release value corresponds to CCCS(=O)(=O)Nc1ccc(F)c(C(=O)c2c[nH]c3ncc(-c4ccc(Cl)cc4)cc23)c1F ?
Reply: 0.59
